Target: UniProt Q5U3Y7
Assay: Sigma-2 receptor competitive binding, trace amines
Parameters: from tissue; host or cells: liver membranes (rat inferred)
Settings: read-out: Sigma-2R KD
property: Kd (µM)
Just the number in µM, nothing appended.

CNCCc1ccc(O)cc1 [N-methyltyramine, 4-(2-(methylamino)ethyl)phenol] :: 6.61

Would you kindly look at the next entry?
// sample NCCc1c[nH]c2ccccc12 [Tryptamine] , its Kd was 4.91

---

Let's look at some compounds and their measured EC50.
Target: Kv 1.4 K+ channel (Rattus norvegicus, UniProt P15385)
Sequence (Q9R0C9 whole entry partner): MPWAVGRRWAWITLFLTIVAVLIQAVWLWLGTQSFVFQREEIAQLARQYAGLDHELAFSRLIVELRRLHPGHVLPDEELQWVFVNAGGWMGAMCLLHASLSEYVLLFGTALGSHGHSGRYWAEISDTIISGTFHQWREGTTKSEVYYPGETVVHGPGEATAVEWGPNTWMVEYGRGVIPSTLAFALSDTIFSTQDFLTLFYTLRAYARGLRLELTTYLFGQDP
Sequence (P15385 whole entry): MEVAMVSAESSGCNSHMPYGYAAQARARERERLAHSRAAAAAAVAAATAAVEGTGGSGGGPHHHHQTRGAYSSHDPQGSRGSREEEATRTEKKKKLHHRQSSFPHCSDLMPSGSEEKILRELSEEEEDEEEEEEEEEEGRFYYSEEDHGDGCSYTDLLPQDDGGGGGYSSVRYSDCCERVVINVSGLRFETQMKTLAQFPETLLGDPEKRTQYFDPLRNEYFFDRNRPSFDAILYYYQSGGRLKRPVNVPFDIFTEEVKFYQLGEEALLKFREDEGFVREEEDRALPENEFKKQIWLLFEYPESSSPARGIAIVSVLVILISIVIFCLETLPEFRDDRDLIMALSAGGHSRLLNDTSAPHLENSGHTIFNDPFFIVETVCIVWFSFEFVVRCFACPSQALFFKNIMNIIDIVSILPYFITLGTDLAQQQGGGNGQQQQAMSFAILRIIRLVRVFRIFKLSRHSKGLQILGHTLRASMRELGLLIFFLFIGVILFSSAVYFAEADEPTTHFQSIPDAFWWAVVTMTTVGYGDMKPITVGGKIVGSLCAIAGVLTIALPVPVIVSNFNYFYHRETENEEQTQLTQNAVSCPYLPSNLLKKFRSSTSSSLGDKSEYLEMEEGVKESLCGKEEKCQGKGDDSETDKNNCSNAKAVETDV
Assay: Whole cell patch clamp of Kv 1.4 K+ channel co-expressed with sigma-1 receptor in HEK-293 cells
Settings: HEK-293 co-expressing sigma-1 receptor; read-out: EC50 for inhibition of the Kv 1.4 K+ channel
Just the number in µM, nothing appended.

CCCCNCCCc1ccccc1 :: 50

// sample CCCCCCCNCCCc1ccccc1 , its EC50 was 10

---

Target: σ-1 Sites (Cavia porcellus)
Construct: from tissue
Sequence (Q60492 whole entry): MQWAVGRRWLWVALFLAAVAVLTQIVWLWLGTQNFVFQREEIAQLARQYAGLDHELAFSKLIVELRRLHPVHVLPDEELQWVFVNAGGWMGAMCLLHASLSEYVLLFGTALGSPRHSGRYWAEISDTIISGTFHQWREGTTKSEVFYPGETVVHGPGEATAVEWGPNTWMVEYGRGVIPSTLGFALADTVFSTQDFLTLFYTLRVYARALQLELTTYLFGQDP
Experiment: σ-1 sites radioligand binding, guinea pig liver membranes (Table 2)
Details: σ-2 rat liver / σ-1 guinea pig liver membranes
The threshold is inclusive: σ-1 selectivity σ-2 Ki/σ-1 Ki of exactly 0.7 counts as label 1; values below receive label 0.

Check out these entries, answers already filled in.
CCCCCCCCCCCCCCCCCCNCCCc1ccc([N+](=O)[O-])cc1 :: label 0
CCCCCCCNCCCc1ccc([N+](=O)[O-])cc1 :: label 1
CCCCNCCCc1ccccc1 :: label 1

Does the reported σ-1 selectivity σ-2 Ki/σ-1 Ki for CCCCNCCCc1ccc([N+](=O)[O-])cc1 fall at or above the 0.7 mark?
label 1

---

Molecular target: σ-2 Sites (Rattus norvegicus, UniProt Q5U3Y7)
# strict inequality: Ki < 30 nM yields 1.0, everything else yields 0.0

CCCCCCCCCCCCNCCCc1ccccc1 [Compound 1e, N-(3-Phenylpropyl)dodecan-1-amine] :: 0.0
CCCCCCCNCCCc1ccc([N+](=O)[O-])cc1 [Compound 1d] :: 1.0
CCCCCCCNCCCc1ccccc1 [Compound 1c, N-(3-Phenylpropyl)heptane-1-amine] :: 0.0

Take the compound CCCCCCCCCCCCCCCCCCNCCCc1ccccc1 [Compound 1g, N-(3-Phenylpropyl)octadecan-1-amine] and say whether its Ki is less than 30 nM.
0.0

Take the compound CCCCNCCCc1ccc([N+](=O)[O-])cc1 [Compound 1b, N-(3-(4-Nitrophenyl)propyl)butan-1-amine] and say whether its Ki is less than 30 nM.
1.0

Take the compound CCCCCCCCCCCCNCCCc1ccc([N+](=O)[O-])cc1 [Compound 1f] and say whether its Ki is less than 30 nM.
0.0

---

Target: UniProt Q60492
Test: Sigma-1 competitive binding, (+)-[3H]pentazocine, guinea pig liver membranes (Example 6);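 also: compounds tested over serial concentrations, 45 min incubation at 30 °C with membrane preparations, read-out is displacement of bound radioligand from the receptor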
Parameters: from tissue; host or cells: guinea pig liver membranes
Let's look at some molecules and their measured pKd.
Kindly note that pKd refers to -log10 of the concentration in mol/L and answer with the value alone.

CCCNCCc1ccc(F)cc1 :: 7.04

Would you kindly look at the next entry?
GET /values?item= CCCC[N+](CCCC)(CCCC)CCCC &system= UniProt Q60492 returns pKd: 4.26

---

Molecular target: sigma-2 receptor (Rattus norvegicus)
Sequence (Q5U3Y7 1-176): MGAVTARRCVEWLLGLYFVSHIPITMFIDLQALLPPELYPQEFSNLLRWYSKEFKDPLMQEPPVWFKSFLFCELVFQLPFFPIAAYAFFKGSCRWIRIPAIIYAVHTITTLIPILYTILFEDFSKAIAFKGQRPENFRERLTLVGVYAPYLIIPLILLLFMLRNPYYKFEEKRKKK
Experiment: Sigma-2 receptor competitive binding, trace amines
Design: from tissue; host or cells: liver membranes (rat inferred)
property: Kd (µM)
Just the number in µM, nothing appended.

// sample NCCc1ccccc1 [Phenethylamine] , its Kd was 7.31
